Documented Ki or IC50 activity class across a set of compounds
Molecular target: human H4 receptor (Homo sapiens, UniProt Q9H3N8)
Construct: expressed in transfected cells
Sequence (Q9H3N8 whole entry): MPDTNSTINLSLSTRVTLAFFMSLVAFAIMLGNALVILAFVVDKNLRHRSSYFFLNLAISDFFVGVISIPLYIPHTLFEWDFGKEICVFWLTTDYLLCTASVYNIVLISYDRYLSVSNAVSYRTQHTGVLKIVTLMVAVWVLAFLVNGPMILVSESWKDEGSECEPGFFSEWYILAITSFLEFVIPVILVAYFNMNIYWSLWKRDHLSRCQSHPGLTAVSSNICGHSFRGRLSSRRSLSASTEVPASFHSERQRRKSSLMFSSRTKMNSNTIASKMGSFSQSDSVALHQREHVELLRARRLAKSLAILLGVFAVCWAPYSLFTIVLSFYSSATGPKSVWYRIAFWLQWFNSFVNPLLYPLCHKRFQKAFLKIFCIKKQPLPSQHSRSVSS
Test: [3H]Histamine binding on membranes of CHO cells stably expressing human H4 receptor
experimental_readout: Ki or IC50 activity class

> print(dat)
                                   compound                                    target      value
1  Cc1cc(C(OC2CCN(C)CC2)c2nc3ccccc3s2)ccc1F (centres unmarked)  human H4 receptor (Homo sapiens, UniProt Q9H3N8)   < 300 nM
2  CN1CCC(OC(c2cccc(I)c2)c2nc3ccccc3[nH]2)CC1 (centres unmarked)  human H4 receptor (Homo sapiens, UniProt Q9H3N8)    < 30 nM
3  CN1CCC(OC(c2cccs2)c2nc3ccccc3s2)CC1 (centres unmarked)  human H4 receptor (Homo sapiens, UniProt Q9H3N8)   < 300 nM
4  CN1CCC(OC(c2cccc(-c3cccc(CO)c3)c2)c2nc3ccccc3s2)CC1 (centres unmarked)  human H4 receptor (Homo sapiens, UniProt Q9H3N8)   < 300 nM
5  CC(C)c1cccc(C(NC2CCN(C)CC2)c2nc3ccccc3[nH]2)c1 (centres unmarked)  human H4 receptor (Homo sapiens, UniProt Q9H3N8)  < 1000 nM

---

Documented melting point across a set of compounds
Where a name gives a salt, the structure may show the parent alone.
experimental_readout: melting point

> print(dat)
                                    compound   value
 1  CCc1cccc(C(NC2CCN(C)CC2)c2nc3ccccc3[nH]2)c1 (stereo not shown)   76 °C
 2  Cc1ccc(O)c(C(OC2CCN(C)CC2)c2nc3ccccc3[nH]2)c1 (stereo not shown)  151 °C
 3  CN1CCC(OC(c2cccc(N3CCC(=O)C3)c2)c2nc3ccccc3s2)CC1 (stereo not shown) (as salt: oxalate)  105 °C
 4  CN1CCC(COC(c2cccc(Br)c2)c2nc3ccccc3s2)C1 (single isomer, unassigned) (as salt: oxalate)   68 °C
 5  CN1CCC(OC(c2cccc(OCCCCN3CCCCC3)c2)c2nc3ccccc3[nH]2)CC1 (stereo not shown) (as salt: oxalate)  130 °C
 6  CN1CCC(OC(c2cccc(SCC3=NCCN3)c2)c2nc3ccccc3[nH]2)CC1 (stereo not shown)   62 °C
 7  COc1cccc(C(OC2CCN(C)CC2)c2nc3ccccc3[nH]2)c1 (stereo not shown)   83 °C
 8  CN1CCC(OC(c2ccc(Br)cc2)c2nc3ccccc3[nH]2)CC1 (stereo not shown)  122 °C
 9  Cc1ccc(C(OC2CCN(C)CC2)c2nc3ccccc3[nH]2)cc1Br (stereo not shown)   92 °C
10  CN1CCC(OC(c2cccc(CCCCCCN)c2)c2nc3ccccc3s2)CC1 (stereo not shown) (as salt: oxalate)  115 °C
11  CN1CCC(OC(c2cc(F)cc(F)c2)c2nc3ccccc3s2)CC1 (stereo not shown) (as salt: oxalate)  165 °C
12  CN1CCC(OC(c2ccccc2)c2nc3ccccc3[nH]2)CC1 (stereo not shown)  110 °C
13  Cc1cc(F)cc(C(OC2CCN(C)CC2)c2nc3ccccc3s2)c1 (stereo not shown) (as salt: oxalate)  170 °C
14  CN1CCC(OC(c2nc3ccccc3[nH]2)c2cc(C#CCCCN)ccc2F)CC1 (stereo not shown) (as salt: oxalate)  139 °C
15  CN1CCC(OC(c2cccc(SCCNC(=N)N)c2)c2nc3ccccc3s2)CC1 (stereo not shown) (as salt: hydrochloride)  125 °C
16  CN1CCC(OC(c2ccc3c(c2)OCCO3)c2nc3ccccc3[nH]2)CC1 (stereo not shown)  203 °C

---

Counter-ions that a name gives are not always drawn.
experimental_readout: melting point (°C)

> print(dat)
                                   compound  experimental.readout  value
1  CN1CCC(OC(c2cccc(OCCN)c2)c2nc3ccccc3s2)CC1 (centres unmarked)         melting point     76
2  CN1CCC(OC(c2cccc(OCc3cccc(F)c3F)c2)c2nc3ccccc3s2)CC1 (centres unmarked) (as salt: oxalate)         melting point     98
3  Cc1cc(F)cc(C(OC2CCN(C)CC2)c2nc3ccccc3[nH]2)c1O (centres unmarked)         melting point    111
4  CN1CCC(OC(c2nc3ccccc3[nH]2)c2ccc(F)cc2F)CC1 (centres unmarked) (as salt: oxalate)         melting point    106
5  CN1CCC(OC(c2nc3ccccc3[nH]2)c2cc(C#CCCCCN)ccc2F)CC1 (centres unmarked) (as salt: oxalate)         melting point    195
6  CNC1CCN(c2cccc(C(OC3CCN(C)CC3)c3nc4ccccc4s3)c2)C1 (centres unmarked) (as salt: oxalate)         melting point    115
7  Cc1cc(F)c(C(OC2CCN(C)CC2)c2nc3ccccc3o2)c(F)c1 (centres unmarked) (as salt: oxalate)         melting point    114
8  CN1CCC(OC(c2cccc(N3CCC(N)C3)c2)c2nc3ccccc3s2)CC1 (centres unmarked) (as salt: oxalate) [Example 423]         melting point    145

---

Molecular target: human H4 receptor (Homo sapiens, UniProt Q9H3N8)
Construct: expressed in transfected cells
Test: [3H]Histamine binding on membranes of CHO cells stably expressing human H4 receptor
Conditions: human H4 receptor; evaluated in the GTPγ[35S] assay or in the [3H]histamine binding assay (not stated which per compound); Ki or IC50 class
experimental_readout: Ki or IC50 activity class

> print(dat)
                                   molecule     value
1  CN1CCC(OC(c2cccc(N3CCC(F)C3)c2)c2nc3ccccc3s2)CC1 (stereo not shown) [Example 454]   < 30 nM
2  CC(C)C(=O)N(CCSc1cccc(C(OC2CCN(C)CC2)c2nc3ccccc3[nH]2)c1)C(=N)N (stereo not shown) [Example 478]  < 300 nM
3  CN1CCC(OC(c2cccc(N3CCC(O)C3)c2)c2nc3ccccc3s2)CC1 (stereo not shown) [Example 407]   < 30 nM
4  CN1CCC(OC(c2cccc(N3CCC(N)C3)c2)c2nc3ccccc3s2)CC1 (stereo not shown) [Example 429]  < 300 nM
5  CN1CCC(OC(c2cccc(CCCNC(=N)N)c2)c2nc3ccccc3[nH]2)CC1 (stereo not shown) [Example 321]   < 30 nM
6  CN1CCC(OC(c2cccc(I)c2)c2nc3ccccc3s2)CC1 (single isomer, unassigned) [Example 118]   < 30 nM
7  CN1CCC(OC(c2cccc(SCC=CCN)c2)c2nc3ccccc3[nH]2)CC1 (stereo not shown) [Example 474]   < 30 nM

---

Target: human H4 receptor (Homo sapiens)
Construct: expressed in transfected cells
Assay: [3H]Histamine binding on membranes of CHO cells stably expressing human H4 receptor
Documented Ki or IC50 activity class across a set of compounds
experimental_readout: Ki or IC50 activity class

> print(dat)
                                   compound       experimental.readout      value
1  CN1CCC(OC(c2cccc(C#CCCCCN)c2)c2nc3cc(F)ccc3[nH]2)CC1 (stereo not drawn)  Ki or IC50 activity class    < 30 nM
2  CN1CCC(OC(c2cccc(C#N)c2)c2nc3ccccc3[nH]2)CC1 (stereo not drawn)  Ki or IC50 activity class   < 300 nM
3  CN1CCC(OC(c2cccc(-c3cccc([N+](=O)[O-])c3)c2)c2nc3ccccc3s2)CC1 (stereo not drawn)  Ki or IC50 activity class   < 300 nM
4  CN1CCC(OC(c2cccc(N3CC4CC(F)CC4C3)c2)c2nc3ccccc3s2)CC1 (stereo not drawn)  Ki or IC50 activity class  < 1000 nM
5  COc1cc(F)cc(C(NC2CCN(C)CC2)c2nc3ccccc3s2)c1 (stereo not drawn)  Ki or IC50 activity class   < 300 nM
6  CC(C)Oc1cccc(C(OC2CCN(C)CC2)c2nc3ccccc3s2)c1 (stereo not drawn)  Ki or IC50 activity class    < 30 nM
7  CN1CCC(OC(c2cccc(OC3CCC(N)C3)c2)c2nc3ccccc3s2)CC1 (stereo not drawn)  Ki or IC50 activity class    < 30 nM
8  CN1CCC(OC(c2nc3ccccc3[nH]2)c2cc(C(F)(F)F)ccc2O)CC1 (stereo not drawn)  Ki or IC50 activity class   < 300 nM
9  COc1ccc(C(OC2CCN(C)CC2)c2nc3ccccc3s2)cc1 (stereo not drawn)  Ki or IC50 activity class  < 1000 nM

---

Documented Ki or IC50 activity class across a set of compounds
Target: human H4 receptor (Homo sapiens, UniProt Q9H3N8)
Construct: expressed in transfected cells
Experiment: [3H]Histamine binding on membranes of CHO cells stably expressing human H4 receptor
experimental_readout: Ki or IC50 activity class

> print(dat)
                                    compound       experimental.readout      value
 1  Cc1cc(F)cc(C(OC2CCN(C)CC2)c2nc3ccccc3[nH]2)c1O (stereo not shown) [Example 607]  Ki or IC50 activity class  < 1000 nM
 2  CN1CCC(OC(c2cccc(N3CCC(O)C3)c2)c2nc3ccccc3[nH]2)CC1 (stereo not shown) [Example 452]  Ki or IC50 activity class   < 300 nM
 3  Cc1ccc(C(NC2CCN(C)CC2)c2nc3ccccc3[nH]2)cc1 (stereo not shown) [Example 273]  Ki or IC50 activity class  < 1000 nM
 4  CN1CCC(OC(c2cccc(Br)c2)c2nc3ccccc3s2)CC1 (stereo not shown) [Example 27]  Ki or IC50 activity class    < 30 nM
 5  CN1CCC(OC(c2cccc(SCc3ccco3)c2)c2nc3ccccc3[nH]2)CC1 (stereo not shown) [Example 173]  Ki or IC50 activity class   < 300 nM
 6  CN1CCC(OC(c2cccc(SCC3CNC(=O)O3)c2)c2nc3ccccc3[nH]2)CC1 (stereo not shown) [Example 457]  Ki or IC50 activity class    < 30 nM
 7  CN1CCC(OC(c2nc3ccccc3s2)c2ccccc2Cl)CC1 (stereo not shown) [Example 281]  Ki or IC50 activity class  < 1000 nM
 8  CN1CCC(OC(c2cccc(OC3CCNC3)c2)c2nc3ccccc3s2)CC1 (stereo not shown) [Example 382]  Ki or IC50 activity class    < 30 nM
 9  COc1cccc(COc2cccc(C(NC3CCN(C)CC3)c3nc4ccccc4[nH]3)c2)c1 (stereo not shown) [Example 125]  Ki or IC50 activity class    < 30 nM
10  CN1CCC(OC(c2cccc(C#CCCCN)c2)c2nc3ccccc3[nH]2)CC1 (single isomer, unassigned) [Example 565]  Ki or IC50 activity class   < 300 nM
11  CN1CCC(OC(c2nc3ccccc3[nH]2)c2cc(F)cc(F)c2O)CC1 (stereo not shown) [Example 579]  Ki or IC50 activity class  < 1000 nM
12  CCOC(=O)NCCCC#Cc1ccc(F)c(C(OC2CCN(C)CC2)c2nc3ccccc3[nH]2)c1 (stereo not shown) [Example 560]  Ki or IC50 activity class   < 300 nM
13  CN1CCC(OC(c2cccc(C#CCO)c2)c2nc3ccccc3[nH]2)CC1 (stereo not shown) [Example 190]  Ki or IC50 activity class   < 300 nM
14  CN1CCC(OC(c2cccc(C#CCCCNC(=N)N)c2)c2nc3ccccc3s2)CC1 (stereo not shown) [Example 340]  Ki or IC50 activity class    < 30 nM
15  CN1CCC(OC(c2cccc(OCCNCC(=O)OC(C)(C)C)c2)c2nc3ccccc3[nH]2)CC1 (stereo not shown) [Example 361]  Ki or IC50 activity class  < 1000 nM
16  CN1CCC(OC(c2cccc(C=CCCCO)c2)c2nc3ccccc3[nH]2)CC1 (stereo not shown) [Example 389]  Ki or IC50 activity class   < 300 nM
17  CN1CCC(OC(c2cccc(SCCc3cnccn3)c2)c2nc3ccccc3[nH]2)CC1 (stereo not shown) [Example 232]  Ki or IC50 activity class  < 1000 nM
18  CN1CCC(OC(c2cccc(SCCO)c2)c2nc3ccccc3s2)CC1 (single isomer, unassigned) [Example 229]  Ki or IC50 activity class    < 30 nM
19  CN1CCC(OC(c2cccc(S(C)(=O)=O)c2)c2nc3ccccc3s2)CC1 (stereo not shown) [Example 203]  Ki or IC50 activity class  < 1000 nM
20  CN1CCC(OC(c2cccc(SCCCN)c2)c2nc3ccccc3s2)CC1 (stereo not shown) [Example 314]  Ki or IC50 activity class    < 30 nM
21  CN1CCC(OC(c2nc3ccccc3[nH]2)c2cc(OCCF)ccc2F)CC1 (stereo not shown) [Example 489]  Ki or IC50 activity class    < 30 nM
22  CN1CCC(OC(c2ccc3c(c2)CCO3)c2nc3ccccc3s2)CC1 (stereo not shown) [Example 32]  Ki or IC50 activity class   < 300 nM
23  CN1CCC(OC(c2cccc(C#CCCNC(=N)N)c2)c2nc3ccccc3s2)CC1 (stereo not shown) [Example 372]  Ki or IC50 activity class    < 30 nM
24  CN1CCC(OC(c2nc3ccccc3[nH]2)c2cc(C(F)(F)F)ccc2F)CC1 (stereo not shown) [Example 498]  Ki or IC50 activity class   < 300 nM
25  CC(=O)NC(=N)NCCSc1cccc(C(OC2CCN(C)CC2)c2nc3ccccc3[nH]2)c1 (stereo not shown) [Example 401]  Ki or IC50 activity class   < 300 nM
26  CN1CCC(OC(c2cccc(CCCCCNC(=N)N)c2)c2nc3ccccc3[nH]2)CC1 (stereo not shown) [Example 397]  Ki or IC50 activity class   < 300 nM
27  CN1CCC(OC(c2cccc(N3CCC(F)(F)C3)c2)c2nc3ccccc3[nH]2)CC1 (stereo not shown) [Example 491]  Ki or IC50 activity class  < 1000 nM
28  CCCCc1cccc(C(OC2CCN(C)CC2)c2nc3ccccc3s2)c1 (stereo not shown) [Example 80]  Ki or IC50 activity class   < 300 nM
29  Fc1ccc(OC(F)(F)F)cc1C(OCC1CNC1)c1nc2ccccc2[nH]1 (stereo not shown) [Example 515]  Ki or IC50 activity class  < 1000 nM
30  CN1CCC(OC(c2cccc(SCCCF)c2)c2nc3ccccc3[nH]2)CC1 (stereo not shown) [Example 508]  Ki or IC50 activity class    < 30 nM
31  CN1CCC(OC(c2cccc(SCCNC(=N)NC(=O)OC(C)(C)C)c2)c2nc3ccccc3s2)CC1 (stereo not shown) [Example 304]  Ki or IC50 activity class    < 30 nM
32  CN1CCC(OC(c2cccc(OC3CCC(N)CC3)c2)c2nc3ccccc3s2)CC1 (stereo not shown) [Example 477]  Ki or IC50 activity class  < 1000 nM
33  Cc1ccc(C(OC2CCN(C)CC2)c2nc3ccccc3s2)cc1 (stereo not shown) [Example 7]  Ki or IC50 activity class   < 300 nM
34  CN1CCC(OC(c2ccccc2)c2nc3cccc(O)c3[nH]2)CC1 (stereo not shown) [Example 210]  Ki or IC50 activity class  < 1000 nM

Source of measurements: patent US8802664B2
